measurement-protocol: Cytotoxicity against human HeLa cells expressing CD4, CCR5 after 3 days
Format: cell-based
run-parameters: HeLa cells expressing CD4 and CCR5
Quick reference for CC50 at 72 h among some compounds

Solved entries (count: 2):
| compound | assay-metric | result |
| --- | --- | --- |
| Cc1noc(C)c1-c1ccnc2c(C(=O)C(=O)N3CCN(C(=O)c4ccccc4)C[C@H]3C)c[nH]c12 | CC50 at 72 h | > 300 µM |
| CNC(=O)c1ccnc2c(C(=O)C(=O)N3CCN(C(=O)c4ccccc4)C[C@H]3C)c[nH]c12 | CC50 at 72 h | > 300 µM |

[ask] Identify CC50 at 72 h associated with the compound `COc1ccnc2c(C(=O)C(=O)N3CCN(C(=O)c4ccccc4)C[C@H]3C)cn(C)c12`
[reply] > 300 µM

Each recorded value in this set is attributed to ChEMBL document CHEMBL2311324.
